// fraction ligated lookup, one value per entry
B1: F1*; the commonest letter at each place (parent)
chain: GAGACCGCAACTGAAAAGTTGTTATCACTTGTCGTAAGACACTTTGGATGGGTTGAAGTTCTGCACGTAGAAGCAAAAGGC

Variants of: B1
Assay: fraction ligated after 30 min (ligated reads / total reads); higher = more ligase activity
Settings: with F1*sub RNA substrate (template-directed ligation), 42 °C
Just the number, please, no unit attached.

G46C G50C    0.0426
T43A T44C    0.836
G31C A41T    0.732

Sure, the documented fraction ligated for G31C C42G is 0.79

Sure, the documented fraction ligated for G51T is 0.792

Sure, the documented fraction ligated for T43G T49C is 0.726

Sure, the documented fraction ligated for A39G C42T is 0.843

Sure, the documented fraction ligated for G50T A57G is 0.526

Sure, the documented fraction ligated for A37C G55A is 0.837
